TEST_SYSTEM: Gal(a1-4)GlcNAc
ASSAY: glycan array binding signal (z-score within array); higher = stronger binding
ASSAY_CONTEXT: glycan notation: IUPAC condensed, linker removed
Shown is part of a subset that was picked to be rich in the strongest signals.
MEASURED_PARAMETER: glycan array binding signal (z-score)

EUL D1A second (Oryza sativa) (protein) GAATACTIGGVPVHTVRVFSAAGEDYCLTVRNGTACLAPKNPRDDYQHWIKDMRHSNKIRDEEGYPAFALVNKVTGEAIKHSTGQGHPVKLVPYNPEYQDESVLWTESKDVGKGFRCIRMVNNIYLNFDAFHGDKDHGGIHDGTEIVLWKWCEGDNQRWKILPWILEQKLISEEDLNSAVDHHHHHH	-1.01
Cohesin-marm-DC-ASGPR-CRD (protein) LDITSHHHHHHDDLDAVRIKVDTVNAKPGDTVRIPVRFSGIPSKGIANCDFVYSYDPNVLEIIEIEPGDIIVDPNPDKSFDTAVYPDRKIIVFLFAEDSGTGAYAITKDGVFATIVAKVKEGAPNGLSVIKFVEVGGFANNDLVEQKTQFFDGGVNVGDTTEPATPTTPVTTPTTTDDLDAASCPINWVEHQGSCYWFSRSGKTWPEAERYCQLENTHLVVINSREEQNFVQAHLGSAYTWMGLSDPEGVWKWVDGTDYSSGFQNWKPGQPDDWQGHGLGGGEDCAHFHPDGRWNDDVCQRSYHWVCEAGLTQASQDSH	-0.402
Surfactant Protein D (rat); Neck + Carbohydrate Recognition Domain (NCRD) (Rattus norvegicus) (protein) MLLFLLSALVLLTQPLGYLEAEMKTYSHRTMPSACTLVMCSSVESGLPGRDGRDGREGPRGEKGDPGLPGAAGQAGMPGQAGPVGPKGDNGSVGEPGPKGDTGPSGPPGPPGVPGPAGREGALGKQGNIGPQGKPGPKGEAGPKGEVGAPGMQGSAGARGAGPKGERGVPGERGVPGNTGAAGSAGAMGPQGSPGARGPPGLKGDKGIPGDKGAKGESGLPDVASLRQQVEALQGQVQHLQAAFSQYKKVELFPNGQSVGEKIFKTAGFVKPFTEAQLLCTQAGGQLASPRSAAENAALQQLVVAKNEAAFLSMTDSKTEGKFTYPTGESLVYSNWAPGEPNDDGGSEDCVEIFTNGKWNDRACGEKRLVVCEF	-0.242

Now look at this one.
response.value for LEA (Lycopersicon esculentum) (protein) NEVFDVPMNETIGVESINASVGGYPRCGAQGDGGNCPSGMCCSVWGWCGKTYGYCAPQNCQKQCPAPYPEGRCGWQADGKSCPNGKCCSYGGWCGTTSDYCARQNCQKQCILPSPPPPPPPPPGFPRPECGLQKNGERCTKPGECCSIWGLCGATYKYCDPQHCQKQCSAPFPPGRCGWQADGRPCPTGQCCSFSGWCGTTSAHCTYPQCVSQCNDPRFPSSLNNRIQSFML (field: glycan array binding signal (z-score)) = -0.545
